assay: compounds altering viability of human ES cells (AID 493140);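 further: cells exposed to compounds for four days before counting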
experimental.parameters: human embryonic stem cell survival screen; stronger effect = higher value
So basically: survival at 50 or higher? That is Condition met. Lower than 50? That is Condition not met.

Worked examples, 3 compounds total:
>  <compound>
CCCCCCCCCCOCCC(=O)O

>  <group.label>
Condition met

$$$$
>  <compound>
C[C@@]1(O)CCOC(=O)C1

>  <group.label>
Condition not met

$$$$
>  <compound>
CO[C@@]1(NC(=O)C2SC(=C(C(N)=O)C(=O)O)S2)C(=O)N2C(C(=O)O)=C(CSc3nnnn3C)CS[C@@H]21 (stereo partly drawn)

>  <group.label>
Condition not met

$$$$

Query: Does the compound CCCCC[C@H](O)/C=C/[C@@H]1[C@H](C/C=C\CCCC(=O)O)[C@@H](O)C[C@H]1O have recorded survival that is 50 or more?
Reply: Condition met

Query: Try this compound too: CC1CCC2(OC1)O[C@H]1C[C@H]3[C@@H]4CC[C@H]5C[C@@H](O)CC[C@]5(C)[C@H]4CC(=O)[C@]3(C)[C@H]1[C@@H]2C (stereo partly drawn)
Reply: Condition not met

---

Collected rescue above control values appear next to each entry.
assay: restoration of touch response, mutant HTT neurons – whole organism, C. elegans mechanosensory neurons, N-terminal huntingtin (AID 1599)
experimental.parameters: C. elegans polyQ-huntingtin mechanosensory neurons, stronger effect = higher value
Results with a measured potency or affinity are listed apart. Peptide text beside a SMILES is read from it.
The answer should be written as a number, with no unit following it.

Query: Consider the compound shown here: CC1(C)O[C@@H]2CC3C4CCC5=CC(=O)CCC5(C)C4(F)C(O)CC3(C)[C@]2(C(=O)CCl)O1 (stereo partly specified) What is its recorded rescue above control?
Reply: -3.98

Query: // next record COc1ccc2c(c1OC)C(=O)O[C@H]2[C@@H]1c2ccccc2CCN1C
Reply: -8.02

Query: And then C[C@@H]1CC2C3C[C@H](F)C4=CC(=O)C=CC4(C)C3(F)[C@@H](O)CC2(C)C1C(=O)COC(=O)C(C)(C)C (stereo partly specified) , what is it?
Reply: -3.49

Query: Param item: O=c1cc(-c2ccccc2)oc2cc(O)c(O)cc12
Reply: 7.3

Query: How about NCCNC(=O)c1ccc(Cl)cc1 ?
Reply: -2.85

Query: Can you check CC12CCC(CC1=O)C2(C)C (stereo unspecified) next?
Reply: 1.05

Query: C[C@@H]1OC(Oc2c(-c3ccc(O)c(O)c3)oc3cc(O)cc(O)c3c2=O)[C@H](O)[C@H](O)[C@H]1O (stereo partly specified) ?
Reply: 16.2

Query: Similarly, C1CCN2C[C@@H]3CC(CN4CCCC[C@@H]34)[C@H]2C1 ?
Reply: -2.17

Query: Would you mind doing NCCCCC(N)C(=O)NC(Cc1c[nH]c2ccccc12)C(=O)NC(CCCCN)C(=O)O (stereo not drawn) (H-Lys-Trp-Lys-OH; configuration not given here) as well?
Reply: 22.9

Query: What about this compound? CC[C@@H](C(=O)C(C)[C@@H](O)[C@H](C)CCc1ccc(C)c(O)c1C(=O)O)C1OC(CC)(C2CC[C@](O)(CC)[C@H](C)O2)C[C@@H]1C (stereo partly specified)
Reply: 0

Query: Follow-up item: CCC(=O)OC1CCC2C3CCc4cc(O)ccc4C3CCC12C (stereo unspecified)
Reply: -1.7

Query: Same question for CC(=O)OCC(=O)[C@@]12OC(C)(C)O[C@@H]1C[C@H]1C3C[C@H](F)C4=CC(=O)C=CC4(C)[C@@]3(F)[C@@H](O)C[C@@]12C (stereo partly specified) please.
Reply: 14.3

Query: Please answer likewise for CC(=O)N[C@@H](Cc1c[nH]c2ccccc12)C(=O)O
Reply: 0.41

Query: Then this compound: CCN(CCCc1ccccc1)CCCc1ccccc1 (tested in a mixture with another compound)
Reply: -6.75

Query: Another: Nc1ncnc2c1ncn2C1OC(CO)[C@H](O)C1O (stereo partly specified)
Reply: -9.49

Query: Moving on to the next compound: C[C@]12CCC3c4ccc(OC(=O)CCC(=O)O)cc4CCC3C1CCC2=O (stereo partly specified)
Reply: 8.92

Query: Quick one: Cc1cc(Nc2ccccc2C(=O)O)ccc1Cl
Reply: -9.28

Query: Then CC(Cc1ccc(O)c(O)c1)C(C)Cc1ccc(O)c(O)c1 (stereo unspecified) ?
Reply: -2.86

Query: Next entry: COC(=O)C(C)C[N+](C)(C)C (stereo unspecified)
Reply: -5.92

Query: And for O=C(Cc1cccs1)NC1C(=O)N2C(C(=O)[O-])=C(C[n+]3ccccc3)CSC12 (stereo unspecified) ?
Reply: -1.43

Query: Further, for O=c1c(O)cc2c(O)oc3c(=O)c(O)cc4c3c2c1CC=4O ?
Reply: -6.17

Query: Subsequent entry: CC(C)CC1NC(=O)CNC1=O (stereo unspecified)
Reply: -6.28

Query: Entry to check: CO/N=C(\C(=O)NC1C(=O)N2C(C(=O)O)=C(CSc3nc(=O)c(O)nn3C)CS[C@H]12)c1csc(N)n1 (stereo partly specified)
Reply: -0.56

Query: // same read-out, input: NCC1CCC(N)C(OC2C(N)CC(N)C(OC3OC(CO)C(O)C(N)C3O)C2O)O1 (stereo unspecified)
Reply: -7.39

Query: Cool, now O[N+]1=CC=CCC1=S.On1ccccc1=S.[Zn]
Reply: 16

Query: What about CC(=O)Oc1ccc2c(c1)CCC1C2CCC2(C)C(=O)CCC12 (stereo unspecified) ?
Reply: -10.4

Attribution: PubChem BioAssay
